testedTarget: T. gondii farnesyl pyrophosphate synthase (TgFPPS) (Toxoplasma gondii)
Format: biochemical
recordedConditions: read-out: IC50 TgFPPS
observable: pIC50
The quantity pIC50 is defined as the negative base-10 logarithm of the molar concentration.

Worked examples, 5 compounds total:
> print(dat)
                           smilesstr                              testedtarget  endpointvalue
1  CCCCCCCCCC(F)(P(=O)(O)O)P(=O)(O)O  T. gondii farnesyl pyrophosphate synthase (TgFPPS) (Toxoplasma gondii)           7.22
2       CCCCC(F)(P(=O)(O)O)P(=O)(O)O  T. gondii farnesyl pyrophosphate synthase (TgFPPS) (Toxoplasma gondii)           5.47
3     CCCCCCC(F)(P(=O)(O)O)P(=O)(O)O  T. gondii farnesyl pyrophosphate synthase (TgFPPS) (Toxoplasma gondii)           6.62
4   CCCCCCCCC(F)(P(=O)(O)O)P(=O)(O)O  T. gondii farnesyl pyrophosphate synthase (TgFPPS) (Toxoplasma gondii)           7.46
5      CCCCCC(F)(P(=O)(O)O)P(=O)(O)O  T. gondii farnesyl pyrophosphate synthase (TgFPPS) (Toxoplasma gondii)           6.80

Below: the item to evaluate.
IN: Consider the compound shown here: CCCCCCCC(F)(P(=O)(O)O)P(=O)(O)O What is its recorded pIC50?
OUT: 6.21

The measured values listed here are drawn from paper PMC3458512.
